Let's look at some compounds and their measured solubility at 24 h.
# measurementProtocol: physchem
# conditionInfo: PBS/MeOH

structureNotation	boundType	solubility at 24 h / µM
COc1ccc(N(C)c2cnc(SCc3c(F)cccc3F)n2-c2ccc(F)cc2)cc1OC	=	6.3
COc1ccc(N(C)c2cnc(SCc3c(F)cc(OCCCS(=O)(=O)O)cc3F)n2-c2ccc(F)cc2)cc1OC.N	>	200

###

Let's look at some molecules and their measured recovery at 1 h, 10 µM.
# measurementProtocol: Apparent permeability from apical to basolateral side in human Caco2 cells assessed as drug recovery at 10 uM after 1 hr by LC-MS/MS analysis
# Assay type: ADME, cell-based
# conditionInfo: Caco-2, read-out: Drug recovery

structureNotation	recovery at 1 h, 10 µM
COc1ccc(N(C)c2cnc(SCc3c(F)cc(OCCCS(=O)(=O)O)cc3F)n2-c2ccc(F)cc2)cc1OC.N	80.1%
COc1ccc(N(C)c2cnc(SCc3c(F)cc(C#CC[N+](C)(C)C)cc3F)n2-c2ccc(F)cc2)cc1OC.O=C[O-]	69.8%
COc1ccc(N(C)c2cnc(SCc3c(F)cc(OCCC[N+]45CCN(CC4)CC5)cc3F)n2-c2ccc(F)cc2)cc1OC.O=C[O-]	69.3%

###

# measurementProtocol: Half life in C57BL6/J mouse at 20 mg/kg, po by LC-MS/MS analysis
# Assay type: ADME, organism-based
# conditionInfo: in vivo
observedProperty: half-life (min)

structureNotation	measurement
COc1ccc(N(C)c2cnc(SCc3c(F)cc(C#CC[N+](C)(C)C)cc3F)n2-c2ccc(F)cc2)cc1OC.O=C[O-]	97
COc1ccc(N(C)c2cnc(SCc3c(F)cc(OCCCS(=O)(=O)O)cc3F)n2-c2ccc(F)cc2)cc1OC.N	317

###

# measurementProtocol: Apparent permeability from apical to basolateral side in human Caco2 cells assessed as drug recovery at 5 uM after 1 hr by LC-MS/MS analysis
# Assay type: ADME, cell-based
# conditionInfo: Caco-2, read-out: Drug recovery
observedProperty: recovery at 1 h, 5 µM

structureNotation	observedProperty	measurement
COc1ccc(N(C)c2cnc(SCc3c(F)cccc3F)n2-c2ccc(F)cc2)cc1OC	recovery at 1 h, 5 µM	84.4%

###

Let's look at some compounds and their measured Tmax.
# measurementProtocol: Tmax in C57BL6/J mouse at 20 mg/kg, po by LC-MS/MS analysis
# Format: ADME, organism-based
# conditionInfo: in vivo

structureNotation	Tmax, min
COc1ccc(N(C)c2cnc(SCc3c(F)cc(C#CC[N+](C)(C)C)cc3F)n2-c2ccc(F)cc2)cc1OC.O=C[O-]	15
COc1ccc(N(C)c2cnc(SCc3c(F)cc(OCCCS(=O)(=O)O)cc3F)n2-c2ccc(F)cc2)cc1OC.N	45

###

Let's look at some molecules and their measured Papp A→B at 1 h, 10 µM.
# measurementProtocol: Apparent permeability from apical to basolateral side in human Caco2 cells at 10 uM after 1 hr by LC-MS/MS analysis
# Type: ADME, cell-based
# conditionInfo: Caco-2

structureNotation	Papp A→B at 1 h, 10 µM / ×10⁻⁶ cm/s
COc1ccc(N(C)c2cnc(SCc3c(F)cc(OCCC[N+]45CCN(CC4)CC5)cc3F)n2-c2ccc(F)cc2)cc1OC.O=C[O-]	0.016
COc1ccc(N(C)c2cnc(SCc3c(F)cc(C#CC[N+](C)(C)C)cc3F)n2-c2ccc(F)cc2)cc1OC.[I-]	0.08
COc1ccc(N(C)c2cnc(SCc3c(F)cc(OCCCS(=O)(=O)O)cc3F)n2-c2ccc(F)cc2)cc1OC.N	0.031
